Test: MTT cytotoxicity assay, normal human cells HL-7720
Format: cell-based
Details: drug exposure 48 h, mean ± SD (n = 3), read-out: Cytotoxic activity (IC50) HL-7720
Description: Cytotoxicity assays were performed on the human gastric carcinoma cell line BGC-823, the human lung adenocarcinoma cell line A549, the human hepatocellular liver carcinoma HepG2, and the normal human hepatic immortal cell line HL-7702. […] The initial seeding densities varied among the cell lines to ensure a final absorbance reading in control (untreated) cultures within the range of 0.6–0.8 A492 units. […]
Consider the cut-off 9 µM. If the recorded IC50 at 48 h is strictly smaller, the label is Met; if not, the label is Not met.

[[record]]
compound = "COc1cc([C@@H]2c3cc4c(cc3[C@H](O)[C@H]3COC(=O)[C@H]23)OCO4)cc(OC)c1OC"
class = "Met"

[[record]]
compound = "COc1cc2c(c(OC)c1OC)-c1ccc(OC)c(=O)cc1[C@@H](NC(C)=O)CC2"
class = "Met"

[[record]]
compound = "COc1cc(C2c3cc4c(cc3C(Sc3nc(N)nc5nc[nH]c35)C3COC(=O)C23)OCO4)cc(OC)c1OC (centres unmarked)"
class = "Not met"

[[record]]
compound = "COC(=O)Nc1nc2ccc(C(=O)c3cccs3)cc2[nH]1"
class = "Met"

[[record]]
compound = "COc1cc(C2c3cc4c(cc3C(Sc3ncnc5nc[nH]c35)C3COC(=O)C23)OCO4)cc(OC)c1OC (centres unmarked)"
class = "Not met"


----------
Test system: human gastric carcinoma cell line BGC-823
Test: MTT cytotoxicity assay, BGC-823
Assay type: cell-based
Conditions: BGC-823, MTT, drug exposure 48 h, mean ± SD (n = 3), read-out: Cytotoxic activity (IC50) BGC-823
Overview of recorded IC50 for various molecules
Measured Quantity: IC50 (µM)

[[record]]
molecule = "COc1cc(C2c3cc4c(cc3C(Sc3ncnc5nc[nH]c35)C3COC(=O)C23)OCO4)cc(OC)c1OC (stereo not shown) [Compound 4-MP-PTOX]"
reading = 8.72

[[record]]
molecule = "COc1cc2c(c(OC)c1OC)-c1ccc(OC)c(=O)cc1[C@@H](NC(C)=O)CC2 [Colchicines, colchicine]"
reading = 12.2

[[record]]
molecule = "COc1cc([C@@H]2c3cc4c(cc3[C@H](O)[C@H]3COC(=O)[C@H]23)OCO4)cc(OC)c1OC [PTOX, podophyllotoxin]"
reading = 18.3

[[record]]
molecule = "COc1cc(C2c3cc4c(cc3C(Sc3nc(N)nc5nc[nH]c35)C3COC(=O)C23)OCO4)cc(OC)c1OC (stereo not shown) [Compound 4-TG-PTOX]"
reading = 4.4

